SYSTEM: recombinant E. coli enolase (Escherichia coli)
Sequence (P0A6P9 whole entry): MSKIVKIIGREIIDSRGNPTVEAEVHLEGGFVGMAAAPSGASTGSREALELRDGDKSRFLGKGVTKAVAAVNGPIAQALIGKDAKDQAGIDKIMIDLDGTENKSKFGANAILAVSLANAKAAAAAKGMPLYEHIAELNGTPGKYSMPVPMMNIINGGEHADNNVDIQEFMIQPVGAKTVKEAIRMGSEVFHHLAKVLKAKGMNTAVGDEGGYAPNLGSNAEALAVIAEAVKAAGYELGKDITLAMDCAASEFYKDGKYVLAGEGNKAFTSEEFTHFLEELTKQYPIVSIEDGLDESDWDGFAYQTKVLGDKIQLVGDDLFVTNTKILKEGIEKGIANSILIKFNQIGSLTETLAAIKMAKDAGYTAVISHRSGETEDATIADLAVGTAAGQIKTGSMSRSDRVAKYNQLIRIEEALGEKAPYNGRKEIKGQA
PROTOCOL SUMMARY: E. coli enolase enzymatic inhibition assay (PEP absorbance at 240 nm)
SETUP CONDITIONS: enolase 40 nM, 0.5 mM 2-PGA, 25 °C
pIC50: −log10 of the molar value.
READOUT: pIC50

                                   compound                                    system  endpoint_result
0  O=C1C(P(=O)(O)O)CC(O)N1O (stereo not shown)  recombinant E. coli enolase (Escherichia coli)             7.74

The measured values listed here are drawn from paper PMC6863902.
